Below, each entry is listed with its recorded AUC of dose-response viability curve.
Test system: TK-10
PROTOCOL_DETAILS: AUC of dose-response viability curve, drug alone (arbitrary (AUC of normalised viability)); higher = less growth inhibition
TEST_CONTEXT: treatment: drug alone; 5 days
Please give only the number in your answer, with no unit.

QUERY_SMILES | AUC of dose-response viability curve
CCn1nnc2c(N3CCOCC3)nc(-c3ccc(NC(=O)Nc4ccc(C(=O)N5CCN(C)CC5)cc4)cc3)nc21 | 1.71
CN(C)C1CCN(C(=O)c2ccc(NC(=O)Nc3ccc(-c4nc(N5CCOCC5)nc(N5CCOCC5)n4)cc3)cc2)CC1 | 2.09

Can you look up the measured AUC of dose-response viability curve of Cc1cc(C(=O)NOCCO)c(Nc2ccc(I)cc2F)n(C)c1=O for me?
1.74

Here is the next compound: CN(C)CCOc1ccc(-c2nc(-c3ccncc3)c(-c3ccc4c(c3)CC/C4=N/O)[nH]2)cc1
3.35

====

Test system: ACHN
PROTOCOL_DETAILS: GI50 of drug in presence of dasatinib; higher = less potent
TEST_CONTEXT: treatment: drug + dasatinib (fixed dose, not stated); 5 days
MEASUREMENT_KIND: log10 of GI50 of drug (log10 of the value in nM)
A value of 2 here means GI50 of drug of 100 in nM, since values are log10.

Known results for molecules:
MOLECULE | MEASURED_ON | QUANTITATIVE_RESULT
COc1cc(CCc2cc(NC(=O)c3ccc(N4C[C@@H](C)N[C@@H](C)C4)cc3)n[nH]2)cc(OC)c1 [AZD4547] + Cc1nc(Nc2ncc(C(=O)Nc3c(C)cccc3Cl)s2)cc(N2CCN(CCO)CC2)n1 | ACHN | 2.50
CN1CC[C@H](c2c(O)cc(O)c3c(=O)cc(-c4ccccc4Cl)oc23)[C@H](O)C1.Cl [Flavopiridol hydrochloride] + Cc1nc(Nc2ncc(C(=O)Nc3c(C)cccc3Cl)s2)cc(N2CCN(CCO)CC2)n1 | ACHN | 1.39
Cc1nc(NC(=O)N2CCC[C@H]2C(N)=O)sc1-c1ccnc(C(C)(C)C(F)(F)F)c1 [BYL719] + Cc1nc(Nc2ncc(C(=O)Nc3c(C)cccc3Cl)s2)cc(N2CCN(CCO)CC2)n1 | ACHN | 1.06
CCOc1cc2ncc(C#N)c(Nc3ccc(OCc4ccccn4)c(Cl)c3)c2cc1NC(=O)/C=C/CN(C)C [Neratinib (HKI-272)] + Cc1nc(Nc2ncc(C(=O)Nc3c(C)cccc3Cl)s2)cc(N2CCN(CCO)CC2)n1 | ACHN | 0.67
OCc1ccc(-c2ccc(-c3ccc(CO)s3)o2)s1 + Cc1nc(Nc2ncc(C(=O)Nc3c(C)cccc3Cl)s2)cc(N2CCN(CCO)CC2)n1 | ACHN | 1.84

Please look up its log10 of GI50 of drug: COc1ccc(-c2ccc3c(N4CCOCC4)nc(N4C[C@@H](C)O[C@@H](C)C4)nc3n2)cc1CO + Cc1nc(Nc2ncc(C(=O)Nc3c(C)cccc3Cl)s2)cc(N2CCN(CCO)CC2)n1
1.71

Next molecule: O=C(Cc1ccc(-c2ccc(OCCN3CCOCC3)cc2)cn1)NCc1ccccc1 [KX2-391] + Cc1nc(Nc2ncc(C(=O)Nc3c(C)cccc3Cl)s2)cc(N2CCN(CCO)CC2)n1
1.64

Quick one: CCOc1ccn(-c2ccc(F)cc2)c(=O)c1C(=O)Nc1ccc(Oc2ccnc(N)c2Cl)c(F)c1 + Cc1nc(Nc2ncc(C(=O)Nc3c(C)cccc3Cl)s2)cc(N2CCN(CCO)CC2)n1
2.81

Try FC(F)(F)c1ccc(/C=C/c2nc(COc3ccc(CCCCn4ccnn4)cc3)co2)cc1 [Mubritinib (TAK 165)] + Cc1nc(Nc2ncc(C(=O)Nc3c(C)cccc3Cl)s2)cc(N2CCN(CCO)CC2)n1 next.
1.50

Record: Cc1c(NC(=O)OC[C@@H]2COCCN2)cn2ncnc(Nc3ccc4c(cnn4Cc4cccc(F)c4)c3)c12.Cl + Cc1nc(Nc2ncc(C(=O)Nc3c(C)cccc3Cl)s2)cc(N2CCN(CCO)CC2)n1
2.36

====

System: CAKI-1
PROTOCOL_DETAILS: AUC of dose-response viability curve, drug + dasatinib, normalised to DMSO (arbitrary (AUC of normalised viability)); higher = less growth inhibition
TEST_CONTEXT: treatment: drug + dasatinib (fixed dose, not stated); 5 days
MEASUREMENT_KIND: AUC of dose-response viability curve
Give a plain numeric answer without units written out.

COMPOUND | MEASUREMENT_KIND | QUANTITATIVE_RESULT
COCC(=O)NC/C=C/c1ccc2ncnc(Nc3ccc(Oc4ccc(C)nc4)c(C)c3)c2c1 + Cc1nc(Nc2ncc(C(=O)Nc3c(C)cccc3Cl)s2)cc(N2CCN(CCO)CC2)n1 | AUC of dose-response viability curve | 2.26
CN1CCN(c2nc(C3=C(c4c[nH]c5ccccc45)C(=O)NC3=O)c3ccccc3n2)CC1 [Sotrastaurin (AEB071)] + Cc1nc(Nc2ncc(C(=O)Nc3c(C)cccc3Cl)s2)cc(N2CCN(CCO)CC2)n1 | AUC of dose-response viability curve | 2.44
Cc1ccc(NC(=O)c2ccc(CN3CCN(C)CC3)cc2)cc1Nc1nc(-c2cccnc2)cs1 [Masitinib (AB1010)] + Cc1nc(Nc2ncc(C(=O)Nc3c(C)cccc3Cl)s2)cc(N2CCN(CCO)CC2)n1 | AUC of dose-response viability curve | 2.28
Oc1cc(O)cc(/C=C/c2ccc(O)c(O)c2)c1 [Piceatannol] + Cc1nc(Nc2ncc(C(=O)Nc3c(C)cccc3Cl)s2)cc(N2CCN(CCO)CC2)n1 | AUC of dose-response viability curve | 2.07

Item under review: C[C@@H](N)[C@H]1CC[C@H](C(=O)Nc2ccncc2)CC1.Cl.Cl + Cc1nc(Nc2ncc(C(=O)Nc3c(C)cccc3Cl)s2)cc(N2CCN(CCO)CC2)n1 . Reported AUC of dose-response viability curve?
2.31

====

System: UO-31
PROTOCOL_DETAILS: minimum viability across doses, drug + dasatinib, relative to DMSO (fraction); higher = less growth inhibition
TEST_CONTEXT: treatment: drug + dasatinib (fixed dose, not stated); 5 days
MEASUREMENT_KIND: minimum viability across doses

Which minimum viability across doses reading was recorded for the compound COc1cc(N2CCC(N3CCN(C)CC3)CC2)ccc1Nc1ncc(Cl)c(Nc2ccccc2S(=O)(=O)C(C)C)n1 [TAE684 (NVP-TAE684)] + Cc1nc(Nc2ncc(C(=O)Nc3c(C)cccc3Cl)s2)cc(N2CCN(CCO)CC2)n1 ?
0.0115

====

Listed here are compounds together with their documented GI50 of drug.
Test system: ACHN
PROTOCOL_DETAILS: GI50 of drug in presence of dasatinib; higher = less potent
TEST_CONTEXT: treatment: drug + dasatinib (fixed dose, not stated); 5 days
Could you give me the number in nM? Just the number is fine.

Solved cases below.
COMPOUND | GI50 of drug (nM)
Cc1cc(Nc2nc(N[C@@H](C)c3ccc(F)cc3)c(C#N)cc2F)n[nH]1 [AZ 960] + Cc1nc(Nc2ncc(C(=O)Nc3c(C)cccc3Cl)s2)cc(N2CCN(CCO)CC2)n1 | 123
COCC(=O)NC/C=C/c1ccc2ncnc(Nc3ccc(Oc4ccc(C)nc4)c(C)c3)c2c1 + Cc1nc(Nc2ncc(C(=O)Nc3c(C)cccc3Cl)s2)cc(N2CCN(CCO)CC2)n1 | 3030
O=C1NC(=O)[C@@H](c2cn3c4c(cccc24)CCC3)[C@@H]1c1c[nH]c2ccccc12 [ARQ 197 (Tivantinib)] + Cc1nc(Nc2ncc(C(=O)Nc3c(C)cccc3Cl)s2)cc(N2CCN(CCO)CC2)n1 | 367
O=C(c1ccc(/C=C/c2n[nH]c3ccccc23)cc1)N1CCNCC1 [KW 2449] + Cc1nc(Nc2ncc(C(=O)Nc3c(C)cccc3Cl)s2)cc(N2CCN(CCO)CC2)n1 | 78.5
COCC[n+]1c2c(n(Cc3cnccn3)c1C)C(=O)c1ccccc1C2=O [YM155] + Cc1nc(Nc2ncc(C(=O)Nc3c(C)cccc3Cl)s2)cc(N2CCN(CCO)CC2)n1 | 5.43

Attention now turns to another entry.
State the recorded GI50 of drug for this entry: CNC(=O)c1cc(COc2nnc(Nc3ccc(Cl)cc3)c3ccoc23)ccn1 [Telatinib (BAY 57-9352)] + Cc1nc(Nc2ncc(C(=O)Nc3c(C)cccc3Cl)s2)cc(N2CCN(CCO)CC2)n1
7500

====

System: A498
PROTOCOL_DETAILS: AUC of dose-response viability curve, drug + dasatinib, normalised to DMSO (arbitrary (AUC of normalised viability)); higher = less growth inhibition
TEST_CONTEXT: treatment: drug + dasatinib (fixed dose, not stated); 5 days
MEASUREMENT_KIND: AUC of dose-response viability curve

Field: example entries. Status: answers known.
COMPOUND | AUC of dose-response viability curve
Cl.Cl.Fc1cc(-c2cccc3ncc(-c4cnn(C5CCNCC5)c4)nc23)cc(F)c1CN1CCOCC1 [NVP-BSK805] + Cc1nc(Nc2ncc(C(=O)Nc3c(C)cccc3Cl)s2)cc(N2CCN(CCO)CC2)n1 | 3.09
O=c1[nH]c2ccc(Cl)cc2c(N[C@@H]2CN3CCC2CC3)c1-c1nc2ccccc2[nH]1 [CHIR-124] + Cc1nc(Nc2ncc(C(=O)Nc3c(C)cccc3Cl)s2)cc(N2CCN(CCO)CC2)n1 | 2.13
CN1CC[C@H](c2c(O)cc(O)c3c(=O)cc(-c4ccccc4Cl)oc23)[C@H](O)C1.Cl [Flavopiridol hydrochloride] + Cc1nc(Nc2ncc(C(=O)Nc3c(C)cccc3Cl)s2)cc(N2CCN(CCO)CC2)n1 | 1.74
Cn1cc(-c2ccc3ncc(Cc4ccc5ncccc5c4)n3n2)cn1 [NVP-BVU972] + Cc1nc(Nc2ncc(C(=O)Nc3c(C)cccc3Cl)s2)cc(N2CCN(CCO)CC2)n1 | 3.44
CN[C@@H]1C[C@H]2O[C@@](C)([C@@H]1OC)n1c3ccccc3c3c4c(c5c6ccccc6n2c5c31)C(=O)NC4 [Staurosporine] + Cc1nc(Nc2ncc(C(=O)Nc3c(C)cccc3Cl)s2)cc(N2CCN(CCO)CC2)n1 | 1.07
NC1(Cc2ccc(Cl)cc2)CCN(c2ncnc3[nH]ccc23)CC1 + Cc1nc(Nc2ncc(C(=O)Nc3c(C)cccc3Cl)s2)cc(N2CCN(CCO)CC2)n1 | 3.16
CCn1c(N)c(C(=O)NC)c(=O)c2ccc(C#C[C@@](C)(O)COC)nc21 + Cc1nc(Nc2ncc(C(=O)Nc3c(C)cccc3Cl)s2)cc(N2CCN(CCO)CC2)n1 | 3.2
CN(C)C/C=C/C(=O)Nc1cc2c(Nc3ccc(F)c(Cl)c3)ncnc2cc1O[C@H]1CCOC1 [Afatinib (BIBW2992)] + Cc1nc(Nc2ncc(C(=O)Nc3c(C)cccc3Cl)s2)cc(N2CCN(CCO)CC2)n1 | 2.54
COc1cccc2cc(-c3nc([C@H]4CC[C@H](C(=O)O)CC4)n4ncnc(N)c34)[nH]c12 [OSI-027] + Cc1nc(Nc2ncc(C(=O)Nc3c(C)cccc3Cl)s2)cc(N2CCN(CCO)CC2)n1 | 3.08
COc1ccc(C2=NC(c3ccc(Cl)cc3)C(c3ccc(Cl)cc3)N2C(=O)N2CCNC(=O)C2)c(OC(C)C)c1 (stereo not drawn) [Nutlin-3] + Cc1nc(Nc2ncc(C(=O)Nc3c(C)cccc3Cl)s2)cc(N2CCN(CCO)CC2)n1 | 3.61

Requested read-out: AUC of dose-response viability curve. Entry: CNC(=O)c1ccccc1Nc1nc(Nc2ccc(N3CCOCC3)cc2OC)ncc1Cl [NVP-TAE226] + Cc1nc(Nc2ncc(C(=O)Nc3c(C)cccc3Cl)s2)cc(N2CCN(CCO)CC2)n1
3.26

Please give the result for NCC(=O)Nc1ccc(-n2nc(C(F)(F)F)cc2-c2ccc3c(ccc4ccccc43)c2)cc1 + Cc1nc(Nc2ncc(C(=O)Nc3c(C)cccc3Cl)s2)cc(N2CCN(CCO)CC2)n1 too.
2.71

What about this compound? COc1cccc(-c2cc(=O)c3ccccc3o2)c1N + Cc1nc(Nc2ncc(C(=O)Nc3c(C)cccc3Cl)s2)cc(N2CCN(CCO)CC2)n1
3.37

Lookup COc1cc2ncnc(Nc3cccc(Cl)c3)c2cc1OC [AG-1478 (Tyrphostin AG-1478)] + Cc1nc(Nc2ncc(C(=O)Nc3c(C)cccc3Cl)s2)cc(N2CCN(CCO)CC2)n1
3.95

What would you report for CNC(=O)c1ccc(C)c(-n2c(C)cc(OCc3ccc(F)cc3F)c(Br)c2=O)c1 + Cc1nc(Nc2ncc(C(=O)Nc3c(C)cccc3Cl)s2)cc(N2CCN(CCO)CC2)n1 ?
3.58

And for CS(=O)c1ccc(-c2nc(-c3ccc(F)cc3)c(-c3ccncc3)[nH]2)cc1 (stereo not drawn) + Cc1nc(Nc2ncc(C(=O)Nc3c(C)cccc3Cl)s2)cc(N2CCN(CCO)CC2)n1 ?
3.76

Same again, this time with COc1ccc(-c2ccc3ncc4c(c3c2)n(-c2ccc(N3CCNCC3)c(C(F)(F)F)c2)c(=O)n4C)cn1.O=C(O)/C=C\C(=O)O [NVP-BGT226] + Cc1nc(Nc2ncc(C(=O)Nc3c(C)cccc3Cl)s2)cc(N2CCN(CCO)CC2)n1
0.972

COc1cc2nccc(Oc3ccc(NC(=O)Nc4cc(C)on4)c(Cl)c3)c2cc1OC [Tivozanib (AV-951)] + Cc1nc(Nc2ncc(C(=O)Nc3c(C)cccc3Cl)s2)cc(N2CCN(CCO)CC2)n1 ?
3.13
